B1: Intersectin-1, residues 1156 to 1213; numbered along this chain, Q15811 (parent)
chain: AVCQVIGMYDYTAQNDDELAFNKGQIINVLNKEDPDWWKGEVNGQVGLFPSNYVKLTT

# Variants of: B1
# TEST DESCRIPTION: abundance fitness (aPCA) (normalised: wild type 0, dead -1); higher = more abundant; growth selection in yeast, the domain comes from the species named
# MEASUREMENT SETUP: Homo sapiens
Threshold check on abundance fitness: at or above -0.4 gives rule met, strictly below gives rule not met.

1) AVCQVIGMYDYTAQNDMELAFNKGQIINVLNKEDPDWWKGEVNGQVGLFPSNYVKLTT [D17M]
rule met
2) AVCQVIGMYDYTAQNDDELCFNKGQIINVLNKEDPDWWKGEVNGQVGLFPSNYVKLTT [A20C]
rule met
3) AVCQVIGMYDYTAQNDDELAFNKGQIINVLNLEDPDWWKGEVNGQVGLFPSNYVKLTT [K32L]
rule met
4) AVDQVIGMYDYTAQNDDELAFNKGQIINVLNKEDPDWWKGEVNGQVGLFPSNYVKLTT [C3D]
rule met
5) AVCQVIGMYDYTAQNDDLLAFNKGQIINVLNKEDPDWWKGEVNGQVGLFPSNYVKLTT [E18L]
rule not met
6) AVCQVIGMYDWTAQNDDELAFNKGQIINVLNKEDPDWWKGEVNGQVGLFPSNYVKLTT [Y11W]
rule not met
7) AVCQVIGMYDYTAQNDDELAFNKGQIINVLNKEDPDWWKGEVNGQVSLFPSNYVKLTT [G47S]
rule not met
8) AVCQVIGMYDYTAQNDDELAFNKGQVINVLNKEDPDWWKGEVNGQVGLFPSNYVKLTT [I26V]
rule met
9) AVCQVIGMYDYTAQNDIELAFNKGQIINVLNKEDPDWWKGEVNGQVGLFPSNYVKLTT [D17I]
rule not met
10) AVCQVIGMYFYTAQNDDELAFNKGQIINVLNKEDPDWWKGEVNGQVGLFPSNYVKLTT [D10F]
rule not met
11) AVCQVIGMYDYTAQNDDELAFNKGQIINVLNKEDPDWWKGEVNGQVGLFPSNYPKLTT [V54P]
rule not met
12) AVCQVIGHYDYTAQNDDELAFNKGQIINVLNKEDPDWWKGEVNGQVGLFPSNYVKLTT [M8H]
rule met
13) AVCQVIGMYDYTAQNDDELAFNKGQIINVLNKEDPDWWKGEVNGQVGLFPSNYVALTT [K55A]
rule met
14) AVCQVIGMYDYTAQNDDELAFNKGQIINVLNKEDPDWWKGEVNGQVGLFPSNYAKLTT [V54A]
rule not met
15) AVCQVIGMYDYTAQNDDELAFNKGQIINVLNKEDPDWWKGEQNGQVGLFPSNYVKLTT [V42Q]
rule not met
16) AVTQVIGMYDYTAQNDDELAFNKGQIINVLNKEDPDWWKGEVNGQVGLFPSNYVKLTT [C3T]
rule met
17) AVCQVIGMYDYTAQNDDELAFNEGQIINVLNKEDPDWWKGEVNGQVGLFPSNYVKLTT [K23E]
rule met
18) AVCQVIGMYDYVAQNDDELAFNKGQIINVLNKEDPDWWKGEVNGQVGLFPSNYVKLTT [T12V]
rule met
19) AVCQVIGMYDYTAQNDDELAFWKGQIINVLNKEDPDWWKGEVNGQVGLFPSNYVKLTT [N22W]
rule not met
20) AVCQVIGMYDYTAQNDDELAFNKGQTINVLNKEDPDWWKGEVNGQVGLFPSNYVKLTT [I26T]
rule met
21) AVCQVIGMYWYTAQNDDELAFNKGQIINVLNKEDPDWWKGEVNGQVGLFPSNYVKLTT [D10W]
rule not met
22) AVCQVIGMYDYTAQNDDELAFNKGQIINVLNKEDPDWWKGEVNGQVGLFPSYYVKLTT [N52Y]
rule met
